Assay: physchem
Assay type: physicochemical
Conditions: 25 °C, pH 12.8, aqueous buffer, thermodynamic from solid
recorded.metric: solubility thermodynamic at 24 h (µg/mL)
API: value field is a number in µg/mL; no unit string.

Determine its reported solubility thermodynamic at 24 h: COc1cc(CCc2cc(-c3nc4ccc(N5CCN(C)CC5)cc4[nH]3)n[nH]2)cc(OC)c1 60

====

Experiment: physchem
Format: physicochemical
Details: 25 °C, aqueous buffer, thermodynamic from solid
recorded.metric: solubility at 24 h

Return the recorded solubility at 24 h value; entry: COc1cc(CCc2cc(-c3nc4ccc(N5CCN(C)CC5)cc4[nH]3)n[nH]2)cc(OC)c1 0.01 to 40 mg/mL
